Attribution: ChEMBL document CHEMBL4004859

Catalogue of selectivity ratio readings, one per entry.
Assay: Selectivity index, ratio of IC50 for African green monkey Vero cells to IC50 for chloroquine-sensitive Plasmodium falciparum D6 infected in red blood cells
Type: toxicity, cell-based
Conditions: read-out: Ratio IC50
property: selectivity ratio

>>> assay_result("CCN1CCN(c2nc(C)cc(N(CCCNc3ccnc4cc(Cl)ccc34)Cc3ccco3)n2)CC1")
"> 222"
>>> assay_result("CCc1nc(N)nc(N)c1-c1ccc(Cl)cc1")
"> 1110"
>>> assay_result("Cc1cc(N(CCCNc2ccnc3cc(Cl)ccc23)Cc2ccco2)nc(N2CCN(C)CC2)n1")
"> 206"
>>> assay_result("Cc1cc(N(CCNc2ccnc3cc(Cl)ccc23)Cc2ccco2)nc(N2CCCCC2)n1")
"> 164"
>>> assay_result("CCN1CCN(c2cc(C)nc(N(CCCNc3ccnc4cc(Cl)ccc34)Cc3ccco3)n2)CC1")
"> 250"
>>> assay_result("Cc1cc(N2CCCCC2)nc(N(CCCNc2ccnc3cc(Cl)ccc23)Cc2ccco2)n1")
"> 169"
>>> assay_result("C[C@@H]1CC[C@H]2[C@@H](C)C(=O)O[C@@H]3O[C@@]4(C)CC[C@@H]1[C@]32OO4")
"> 222"
>>> assay_result("Cc1cc(N(CCNc2ccnc3cc(Cl)ccc23)Cc2ccco2)nc(N2CCN(C)CC2)n1")
"> 244"
>>> assay_result("Cc1cc(N(CCNc2ccnc3cc(Cl)ccc23)Cc2ccco2)nc(N2CCOCC2)n1")
"> 182"
>>> assay_result("CCN1CCN(c2cc(C)nc(N(CCNc3ccnc4cc(Cl)ccc34)Cc3ccco3)n2)CC1")
"> 238"
>>> assay_result("Cc1cc(N2CCOCC2)nc(N(CCNc2ccnc3cc(Cl)ccc23)Cc2ccco2)n1")
"> 233"
>>> assay_result("Cc1cc(N2CCCC2)nc(N(CCNc2ccnc3cc(Cl)ccc23)Cc2ccco2)n1")
"> 167"
>>> assay_result("Cc1cc(N(CCCNc2ccnc3cc(Cl)ccc23)Cc2ccco2)nc(Cl)n1")
"> 92.6"
>>> assay_result("Cc1cc(N(CCNc2ccnc3cc(Cl)ccc23)Cc2ccco2)nc(N2CCCC2)n1")
"> 200"
>>> assay_result("Cc1cc(N2CCCC2)nc(N(CCCNc2ccnc3cc(Cl)ccc23)Cc2ccco2)n1")
"> 196"
>>> assay_result("Cc1cc(N(CCCNc2ccnc3cc(Cl)ccc23)Cc2ccco2)nc(N2CCOCC2)n1")
"> 217"
>>> assay_result("Cc1cc(N2CCN(C)CC2)nc(N(CCCNc2ccnc3cc(Cl)ccc23)Cc2ccco2)n1")
"> 204"
>>> assay_result("Cc1cc(Cl)nc(N(CCNc2ccnc3cc(Cl)ccc23)Cc2ccco2)n1")
"> 125"
>>> assay_result("Cc1cc(Cl)nc(N(CCCNc2ccnc3cc(Cl)ccc23)Cc2ccco2)n1")
"> 29.7"

###

selectivity ratio values for the molecules below.
Experiment: Selectivity index, ratio of IC50 for African green monkey Vero cells to IC50 for chloroquine-resistant Plasmodium falciparum W2 infected in red blood cells
Type: toxicity, cell-based
Settings: read-out: Ratio IC50
property: selectivity ratio

>>> assay_result("Cc1cc(N(CCCNc2ccnc3cc(Cl)ccc23)Cc2ccco2)nc(N2CCN(C)CC2)n1")
"> 213"
>>> assay_result("Cc1cc(N(CCCNc2ccnc3cc(Cl)ccc23)Cc2ccco2)nc(N2CCCC2)n1")
"> 132"
>>> assay_result("Cc1cc(N(CCNc2ccnc3cc(Cl)ccc23)Cc2ccco2)nc(N2CCCCC2)n1")
"> 50.2"
>>> assay_result("Cc1cc(N2CCCC2)nc(N(CCCNc2ccnc3cc(Cl)ccc23)Cc2ccco2)n1")
"> 61.7"
>>> assay_result("CCN1CCN(c2nc(C)cc(N(CCCNc3ccnc4cc(Cl)ccc34)Cc3ccco3)n2)CC1")
"> 233"
>>> assay_result("CCN1CCN(c2nc(C)cc(N(CCNc3ccnc4cc(Cl)ccc34)Cc3ccco3)n2)CC1")
"> 250"
>>> assay_result("CCN1CCN(c2cc(C)nc(N(CCCNc3ccnc4cc(Cl)ccc34)Cc3ccco3)n2)CC1")
"> 256"
>>> assay_result("Cc1cc(N(CCNc2ccnc3cc(Cl)ccc23)Cc2ccco2)nc(N2CCN(C)CC2)n1")
"> 244"
>>> assay_result("Cc1cc(N2CCCCC2)nc(N(CCNc2ccnc3cc(Cl)ccc23)Cc2ccco2)n1")
"> 49"
>>> assay_result("Cc1cc(N(CCCNc2ccnc3cc(Cl)ccc23)Cc2ccco2)nc(N2CCOCC2)n1")
"> 38.9"
>>> assay_result("C[C@@H]1CC[C@H]2[C@@H](C)C(=O)O[C@@H]3O[C@@]4(C)CC[C@@H]1[C@]32OO4")
435
>>> assay_result("Cc1cc(N(CCCNc2ccnc3cc(Cl)ccc23)Cc2ccco2)nc(Cl)n1")
"> 22"
>>> assay_result("Cc1cc(N2CCN(C)CC2)nc(N(CCNc2ccnc3cc(Cl)ccc23)Cc2ccco2)n1")
"> 238"
>>> assay_result("Cc1cc(N2CCN(C)CC2)nc(N(CCCNc2ccnc3cc(Cl)ccc23)Cc2ccco2)n1")
"> 208"
>>> assay_result("Cc1cc(N(CCNc2ccnc3cc(Cl)ccc23)Cc2ccco2)nc(Cl)n1")
"> 133"
